Where do the numbers come from? From PubChem BioAssay (NCI).

System: DMS 114 small cell lung
Assay: NCI tumour cell line growth inhibition, 48 h
ENDPOINT NAME: TGI

| MOLECULE | TGI |
| --- | --- |
| CC(=O)NC1C(OCc2ccccc2)OC(COC(=O)CCCCCCCCCCNC(=O)c2cccc3c(=O)c4ccccc4[nH]c23)C(O)C1OC(C)C(=O)NC(C)C(=O)NC(CCC(N)=O)C(N)=O (stereo not drawn) | > 100 µM |
| COc1cc(N=Nc2cccc(S(=O)(=O)O)c2)c(C)cc1N=Nc1ccc(/C=C/c2ccc(N=[N+]([O-])c3ccc(/C=C/c4ccc(N=Nc5cc(C)c(N=Nc6cccc(S(=O)(=O)O)c6)cc5OC)cc4)c(S(=O)(=O)O)c3)cc2S(=O)(=O)O)cc1 | > 100 µM |
| O=C(CCCCCCCCCCc1ccccc1)c1c(O)cccc1O | 45.3 µM |

Continue with the molecule presented below.
Reported TGI for NC1=NS(=O)(=O)N=C(N)C1=Cc1ccc([N+](=O)[O-])o1 : what is it?
31.9 µM

* * *

System: A498 renal
Assay: NCI tumour cell line growth inhibition, 48 h
ENDPOINT NAME: log10 of TGI (log10 of the value in µM)
Plainly stated, the numbers are log10 of TGI given in µM.

The following molecules have reported results that may help.
| MOLECULE | DATA VALUE |
| --- | --- |
| CCN(CC)CCC(=O)Nc1ccc(Cn2nnc3c2C(=O)c2nnn(Cc4ccc(NC(=O)CCN(CC)CC)cc4)c2C3=O)cc1 | 0.98 |
| C=C1C(=O)O[C@H]2C1[C@H](OC(=O)/C(C)=C\COC(C)=O)C[C@]1(CO1)[C@@H]1[C@H](O)[C@H]3O[C@@]3(C)[C@@H]12 (stereo partly drawn) | 2.00 |
| CCCCCCCCCCCCOC1C(COCCN2CCCC2)OC2OC(C)(C)OC21 (stereo not drawn) | 1.45 |
| COc1ccc(S(=O)(=O)N/N=C/C(=O)O)cc1 | 3.08 |
| COc1cc[nH]c1/C=C1\C(=O)Nc2ccc(F)c(C#CC3(O)CCOCC3)c21 | 0.22 |

Given COc1ccc2nc3ccc(OC)cc3c(SCCCN)c2c1 , state its recorded log10 of TGI.
1.75

* * *

System: SW-620 colon
Assay: NCI tumour cell line growth inhibition, 48 h; in the data active means GI50 below about 0.43 µM; inactive means the rest
The reply should name one outcome from 1 for active, -1 for inactive

| MOLECULE | DISCRETE LABEL |
| --- | --- |
| COC(=O)[C@H](Cc1ccccc1)NC(=O)c1csc([C@@H](C[C@H](C(C)C)N(C)C(=O)[C@@H](NC(=O)[C@H]2CCCCN2C)C2CC2)OC(C)=O)n1 | 1 |
| CC[C@@]1(OC(=O)CN)C(=O)OCc2c1cc1n(c2=O)Cc2cc3cc(N)ccc3nc2-1 | 1 |
| COC(=O)C(C)N1C(=O)c2ccccc2I1OC(C)=O (stereo unspecified) | -1 |

Assay result, entry CCN(CC)CCC(=O)Nc1ccc(Cn2nnc3c2C(=O)c2nnn(Cc4ccc(NC(=O)CCN(CC)CC)cc4)c2C3=O)cc1 — outcome?
1

Tell me the assay call for COc1ccccc1Cn1cc2c(c1)-c1oncc1CC2 please.
1

Any idea what this test logged for O=C1c2cccnc2C(=O)c2c1c(C(=O)OCCCN1CCOCC1)c1ccccn21 ?
1

* * *

Tested on: EKVX NSCLC
Experiment: NCI tumour cell line growth inhibition, 48 h; in the data active means GI50 below about 0.43 µM; inactive means the rest
Please reply with one of these outcomes: active, inactive

| MOLECULE | TARGET UNDER TEST | DISCRETE LABEL |
| --- | --- | --- |
| CC(C)OP(=O)(OC(C)C)C(N(C)C)P(=O)(OC(C)C)OC(C)C.[Cl][Sn]([Cl])([Cl])[c]1ccccc1 | EKVX NSCLC | inactive |
| COc1cc(C2C3=C(COC3=O)N(CCO)c3cc4c(cc32)CCC4)cc(OC)c1O (stereo not drawn) | EKVX NSCLC | inactive |
| CC[C@]12C=CCN3CC[C@]4(C(=C(C(=O)OC)C1)Nc1cc(O)ccc14)[C@@H]32 | EKVX NSCLC | inactive |

Given COc1ccc(C2=CC(c3cc(OC)c(OC)c(OC)c3)n3ncnc3N2)cc1 (stereo not drawn) , state the outcome it received in this test.
active

Which outcome did this test record for the molecule Oc1ccc2ccccc2c1-c1nnc(CCCCCCCCc2nnc(-c3c(O)ccc4ccccc34)o2)o1 ?
inactive

Each molecule tested received a call. Report the one for c1ccc2c(c1)nc(NCCN1CCNCC1)c1c3ccccc3[nH]c21 .
inactive

What call does the record list for CCN(CC)CCC(=O)Nc1ccc(Cn2nnc3c2C(=O)c2nnn(Cc4ccc(NC(=O)CCN(CC)CC)cc4)c2C3=O)cc1 ?
inactive

Please let me know the test result on file for CC1Cc2c(N(C)C)ncnc2N(C)c2ccc(Cl)cc21 (stereo not drawn) .
inactive

Just curious, what result did Cc1ccc(NCSc2ccc(Cl)cc2)cc1 get here?
inactive

Can you look up the reported call for O=C1c2cccnc2C(=O)c2c1c(C(=O)OCCCN1CCOCC1)c1ccccn21 for me?
active

What is the recorded call for this molecule in the test? COc1ccccc1Cn1cc2c(c1)-c1oncc1CC2
inactive

GET /call?item= CC(C)(C)n1cc(-c2ccnc(NCCNS(=O)(=O)c3ccc(Br)cc3)c2)c(-c2cccc(O)c2)n1 returns the recorded outcome of this test.
inactive

I would be grateful if you could indicate the recorded call for CC(=O)[CH-]C(=O)c1ccccc1.CC(=O)[CH-]C(=O)c1ccccc1.[O]=[U+2]=[O] .
inactive

* * *

Consider the following compounds and their measured TGI readings.
Test system: HOP-92 NSCLC
Experiment: NCI tumour cell line growth inhibition, 48 h

State the recorded TGI for this entry: COc1cc(C2C3=C(COC3=O)N(CCO)c3cc4c(cc32)CCC4)cc(OC)c1O (stereo not drawn)
> 32.5 µM

Sample CC(C)(C)OC(=O)NC(Cc1ccccc1)C(=O)N[C@H]1c2ccsc2/C(=N/O)[C@H]1O (stereo partly drawn) — what was its TGI?
> 100 µM

# TGI lookup, item COc1cc2ccn3c4cc(OC)c(OC)cc4cc3c2cc1OC
> 100 µM

* * *

Tested on: MDA-MB-435
Experiment: NCI tumour cell line growth inhibition, 48 h
Where a SMILES comes first, the peptide text is derived from it. [ ]: non-standard residue; d: D form. The star is where a group is joined. ξ: configuration not given here. NMeY = CN[C@@H](Cc1ccc(O)cc1)C(=O)O; Cbz = O=C(OCc1ccccc1)*; ξA = CC(N)C(=O)O
As shown below, each of these molecules has a reported TGI value.

Worked examples follow.
| MOLECULE | ENDPOINT NAME | DATA VALUE |
| --- | --- | --- |
| COc1cc(C2C(Cl)C(=O)N2c2ccc(Br)cc2)cc(I)c1O (centres undefined) | TGI | > 100 µM |
| CC[C@@]1(OC(=O)CN)C(=O)OCc2c1cc1n(c2=O)Cc2cc3cc(N)ccc3nc2-1 | TGI | 0.381 µM |
| CN(C)CCCn1c2ccccc2c2cnccc21 | TGI | > 100 µM |

Now look at this entry.
Which TGI is listed for COc1ccc(C[C@@H](C(=O)NCC(N)=O)N(C)C(=O)[C@@H]2CCCN2C(=O)[C@H](CC(C)C)NC(=O)C(C)NC(=O)OCc2ccccc2)cc1 (some centres undefined) (Cbz-[ξA]LP[NMeY](Me)G-NH2) ?
> 100 µM

* * *

Tested on: NCI-H23 lung
Assay: NCI tumour cell line growth inhibition, 48 h; in the data active = GI50 below about 0.43 µM; inactive = the rest
Reply using exactly one outcome from 1 = active, 0 = inactive

| COMPOUND | DISCRETE LABEL |
| --- | --- |
| O=C1c2c(O)cccc2C(C(=O)CCCCC(=O)C2c3cccc(O)c3C(=O)c3c(O)cccc32)c2cccc(O)c21 | 0 |

Could you kindly confirm the outcome this assay logged for O=C1c2cccnc2C(=O)c2c1c(C(=O)OCCCN1CCOCC1)c1ccccn21 ?
1

Entry COc1cc(C2C3=C(COC3=O)N(CCO)c3cc4c(cc32)CCC4)cc(OC)c1O (centres undefined) : call = ?
1

Dear all, I need the recorded test outcome for CC1Cc2c(N(C)C)ncnc2N(C)c2ccc(Cl)cc21 (centres undefined) , thank you.
0

* * *

System: SF-295 CNS
Test: NCI tumour cell line growth inhibition, 48 h
ENDPOINT NAME: TGI

| COMPOUND | DATA VALUE |
| --- | --- |
| c1ccc2c3c(ccc2c1)CSCc1ccc2ccccc2c1-3 | > 100 µM |
| O=C1c2ccccc2-c2cc3ccccc3c(=O)n21 | > 100 µM |
| O=c1oc(-c2ccc(O)c(O)c2)cc2cc(O)cc(O)c12 | > 100 µM |
| COc1ccc(C(=O)Cc2cc(OC)ccc2OC)cc1 | > 100 µM |
| CCCCC[C@H](O)[C@H](C)C=C1SCCCS1 | > 100 µM |

Notebook: pull reported TGI for SF-295 CNS, entry Cc1nnc2n1N=C(CC(=O)c1ccc(O)cc1O)CN2N
> 100 µM

I'm curious: which TGI was measured for Oc1cccc(-c2nc3ccccc3s2)c1 tested on SF-295 CNS?
86.7 µM

Record Cc1cccc(NC(=O)CC(=O)N2N=C(N3c4ccccc4Sc4ccccc43)CC2c2ccccc2)c1 (stereo unspecified) : what is its TGI with SF-295 CNS?
> 100 µM

For the record C=C1C(=O)O[C@H]2C1[C@H](OC(=O)/C(C)=C\COC(C)=O)C[C@]1(CO1)[C@@H]1[C@H](O)[C@H]3O[C@@]3(C)[C@@H]12 (stereo partly specified) , what value of TGI is listed for SF-295 CNS?
> 100 µM

Hi! What's the reported TGI for COC(=O)/C(=N\NC(=O)c1ccccc1O)C(C#N)c1ccc(Cl)cc1 (stereo unspecified) on SF-295 CNS?
> 100 µM
